B1: library; a variant is named by its letters at N, in order (parent)
chain: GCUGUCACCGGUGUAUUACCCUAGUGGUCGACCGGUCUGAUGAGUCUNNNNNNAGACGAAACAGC

- Variants of: B1
- ASSAY TEXT: normalized RNA/DNA level with ligand (relative to sTRSVctl = 100) (log10 (% of sTRSVctl)); ligand: hypoxanthine (xanthine aptamer); higher = less ribozyme self-cleavage, higher mRNA level
- STATED CONDITIONS: ligand concentration (+) RNA-Seq: 5 mM, HEK293T, reporter: mCherry (pCS4076), ligand present: yes
RECORDED METRIC: normalized RNA/DNA level with ligand (log10)
Answers are plain numbers.

Here are 4 variants together with their reported answers.
mutant_label=UUAUCG numeric_value=1.91
mutant_label=ACACCC numeric_value=1.97
mutant_label=AGGAUC numeric_value=1.99
mutant_label=CAGAUU numeric_value=1.96

Hey, can you go through the list below and give me normalized RNA/DNA level with ligand (log10) for every item?
1. CGCUAA
2. GGGACG
3. GGCGCA
4. GGCUGG
5. CCACUG
6. GAAACA
7. UAGUGC
8. AGAGGU

[1.91, 1.89, 1.98, 1.95, 1.92, 1.91, 1.95, 1.9]

Hey, can you go through the list below and give me normalized RNA/DNA level with ligand (log10) for every item?
1. UAGGUG
2. AAGGGU

1.89
1.84

Hey, can you go through the list below and give me normalized RNA/DNA level with ligand (log10) for every item?
1. AUUUCU
2. CAAAUU
3. AAAGAC
4. AGGAAG
5. AAAGUG
6. GGCUCA
7. UCGAAU
8. ACAAUC

1: 1.96; 2: 1.95; 3: 1.9; 4: 1.63; 5: 1.81; 6: 1.98; 7: 1.87; 8: 1.99
